Target: T1, human CD103 (integrin Alpha-E) / human integrin Beta-7 heterodimer on cells (human, UniProt P38570 19-1179; P26010 20-798)
T1 construct: the assay field tells which cells; also called hCD103/hBeta7; CHO.K1-hCD103/hBeta7
T1 sequence (P38570 19-1179 limits assumed, chain 1 of 2): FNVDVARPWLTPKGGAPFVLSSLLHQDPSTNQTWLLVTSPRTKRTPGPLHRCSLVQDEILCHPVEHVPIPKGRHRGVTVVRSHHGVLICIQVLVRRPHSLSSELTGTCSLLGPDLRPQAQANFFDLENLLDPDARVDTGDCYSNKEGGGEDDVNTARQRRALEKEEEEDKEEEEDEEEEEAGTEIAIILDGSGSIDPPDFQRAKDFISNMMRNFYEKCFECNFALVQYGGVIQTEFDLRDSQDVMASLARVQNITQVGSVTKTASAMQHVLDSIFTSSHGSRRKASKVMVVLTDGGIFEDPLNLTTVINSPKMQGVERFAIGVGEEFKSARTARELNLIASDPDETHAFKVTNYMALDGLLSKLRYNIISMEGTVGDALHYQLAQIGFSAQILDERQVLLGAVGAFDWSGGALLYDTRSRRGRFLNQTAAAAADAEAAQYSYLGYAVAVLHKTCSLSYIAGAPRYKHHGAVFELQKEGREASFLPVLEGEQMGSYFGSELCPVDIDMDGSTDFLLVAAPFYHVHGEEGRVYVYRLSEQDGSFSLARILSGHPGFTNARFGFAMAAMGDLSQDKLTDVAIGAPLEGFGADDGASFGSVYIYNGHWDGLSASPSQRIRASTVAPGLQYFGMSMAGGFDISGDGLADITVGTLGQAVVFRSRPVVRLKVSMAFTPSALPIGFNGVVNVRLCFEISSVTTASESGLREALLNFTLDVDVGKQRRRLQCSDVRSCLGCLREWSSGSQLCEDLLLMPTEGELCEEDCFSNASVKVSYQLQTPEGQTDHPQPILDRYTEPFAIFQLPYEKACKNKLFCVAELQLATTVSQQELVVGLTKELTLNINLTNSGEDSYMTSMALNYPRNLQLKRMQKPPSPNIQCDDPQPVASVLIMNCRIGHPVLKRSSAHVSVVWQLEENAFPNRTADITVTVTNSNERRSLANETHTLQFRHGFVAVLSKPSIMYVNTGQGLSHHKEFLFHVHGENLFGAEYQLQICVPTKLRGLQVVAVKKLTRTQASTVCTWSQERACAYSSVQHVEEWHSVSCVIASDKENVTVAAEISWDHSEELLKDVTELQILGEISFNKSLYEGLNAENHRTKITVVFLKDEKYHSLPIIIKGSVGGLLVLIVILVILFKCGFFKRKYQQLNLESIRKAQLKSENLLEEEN
T1 sequence (P26010 20-798 limits assumed, chain 2 of 2): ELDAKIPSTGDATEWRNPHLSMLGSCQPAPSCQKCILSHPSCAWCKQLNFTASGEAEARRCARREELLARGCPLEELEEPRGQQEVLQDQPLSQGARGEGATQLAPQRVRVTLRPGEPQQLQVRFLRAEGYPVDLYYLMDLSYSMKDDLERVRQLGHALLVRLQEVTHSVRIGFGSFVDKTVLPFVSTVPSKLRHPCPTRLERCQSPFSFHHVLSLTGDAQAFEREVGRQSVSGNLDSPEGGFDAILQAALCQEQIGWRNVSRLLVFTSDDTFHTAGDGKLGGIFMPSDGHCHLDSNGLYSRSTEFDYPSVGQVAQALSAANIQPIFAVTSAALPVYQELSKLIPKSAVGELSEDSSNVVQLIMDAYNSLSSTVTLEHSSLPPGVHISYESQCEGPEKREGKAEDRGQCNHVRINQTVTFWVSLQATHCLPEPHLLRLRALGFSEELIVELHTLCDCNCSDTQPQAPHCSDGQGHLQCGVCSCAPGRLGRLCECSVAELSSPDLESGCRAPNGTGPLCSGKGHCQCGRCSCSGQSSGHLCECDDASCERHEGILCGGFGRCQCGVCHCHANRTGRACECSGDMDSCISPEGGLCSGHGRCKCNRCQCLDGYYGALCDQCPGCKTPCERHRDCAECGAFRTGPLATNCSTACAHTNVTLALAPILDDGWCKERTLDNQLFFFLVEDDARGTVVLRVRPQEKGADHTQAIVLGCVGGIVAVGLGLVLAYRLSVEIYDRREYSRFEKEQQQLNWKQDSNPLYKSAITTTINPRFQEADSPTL
Experiment: flow cytometry competition on CD103+CD8+ T cells; pre-incubation with unlabeled 07A; table n=1
parameter.measured: % binding of the fluorescently labeled mAb (IgG pre-incubation = 100) (%)
Your answer should be a plain number; it is taken to be in %.

Answered examples (3):
| binder | result.units | val |
| --- | --- | --- |
| hCD103.01A (antibody, V domains shown, Also tested labelled with AF647, conjugated with Df and labelled with 89Zr; these are written under this molecule; also called clone 01A; hCD103.01 mAb) VH: EVQLQESGPSLVKPSQTLSLTCSVTGDSITSGYWNWIRKFPGNKLEYMGYITYSGSTYYNPSLKSRISITRDTSKNQYYLQLNSVTTEDTATYYCTRHYYGSDAMDYWGQGTSVTVSS VL: DIVMTQSHKFMSTSVGDRVSITCKASQDVSIAVAWYQQRPGQSPKLLIYSASYRYTGVPDRFTGSGSGTDFTFTISSVQAEDLAVYYCQQHYSTPWTFGGGTKLEIK | % | 27.5 |
| hCD103.07A (antibody, mouse IgG1, V domains shown, also called clone 07A) VH: EVQLQESGPSLVKPSQTLSLTCSVTGDSITSGYWNWIRKFPGNKLEYMGYITYSGSTYYNPSLKSRISITRDTSKNQYYLQLNSVTTEDTATYYCARNYYGSSSMDYWGQGTSVTVSS VL: DIVMTQSQKFMSTSVADRVSVTCKASQNVGSDVAWYQQKPGQSPKSLIYSASYRYSGVPDRFTGSGSGTDFTLTISNVQSEDLAEYFCQQYNSYPSTFGGGTKLEIK | % | 33.7 |
| hCD103.06A (antibody, mouse IgG1, V domains shown, also called clone 06A; hCD103.06 mAb) VH: QVQLQQPGSELVRPGASVKLSCKASGYTFTSYWMHWVKQRHGQGLEWIGNIYPGSGSTNYDEKFKSKGTLTVDTSSSTAYMHLSSLTSEDSAVYYCTRGVYDNPYYFDYWGQGTTLTVSS VL: DIQMTQSSSNLSVSLGGRVTITCKASDHINNWLAWYQQKPGNAPRVLISGATSLETGVPSRFSGSGSGKDYTLSITSLQTEDVATYYCQQYWSIPLTFGAGTKLELK | % | 93.2 |

QUERY: If you can, please state the reported % binding of the fluorescently labeled mAb (IgG pre-incubation = 100) value of hCD103.05A (antibody, mouse IgG1, V domains shown, Also tested labelled with AF647, conjugated with Df and labelled with 89Zr; these are written under this molecule; also called clone 05A; hCD103.05 mAb) VH: EVQLQQSGPELEKPGASAKISCKASGYSFTGYNMNWVKQSNGKSLEWIGNIDPYYGGTSYNQKFKGKATLTVDKSSSTAYMQLKSLTSEDSAVYYCARSFYGYDAGSPYNYAMDYWGQGTPVTVSP VL: DIVMTQSHKFMSTSVGDRVSITCKASQDVGTFVAWYQQKPGQSPKLLIYWASTRHTGVPDRFTGSGSGTDFTLTISNVQSEDLADYFCHQYSSYPYTFGGGTQLEIK .
RESULT: 66.3
